- measurement-target: Cytochrome P450 2C9 (Homo sapiens, UniProt P11712)
- Sequence (P11712 whole entry): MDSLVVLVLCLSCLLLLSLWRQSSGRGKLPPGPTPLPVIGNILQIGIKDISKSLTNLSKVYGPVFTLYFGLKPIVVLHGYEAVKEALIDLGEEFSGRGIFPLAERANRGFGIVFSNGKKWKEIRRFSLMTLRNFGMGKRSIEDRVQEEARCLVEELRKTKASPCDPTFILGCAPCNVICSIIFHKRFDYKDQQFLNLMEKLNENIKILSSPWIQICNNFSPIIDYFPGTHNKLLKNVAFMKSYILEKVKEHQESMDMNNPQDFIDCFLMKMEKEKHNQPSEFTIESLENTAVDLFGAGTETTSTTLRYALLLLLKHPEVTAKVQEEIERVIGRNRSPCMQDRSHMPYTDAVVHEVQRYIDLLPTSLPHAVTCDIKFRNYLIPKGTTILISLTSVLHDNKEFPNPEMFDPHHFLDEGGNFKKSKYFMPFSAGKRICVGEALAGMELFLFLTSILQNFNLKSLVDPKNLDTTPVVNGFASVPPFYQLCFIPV
recorded-endpoint: IC50

The molecule CC(C)c1nc(CN(C)C(=O)N[C@@H](CCN)C(=O)N[C@H](CC[C@H](Cc2ccccc2)NC(=O)OCc2cncs2)Cc2ccccc2)cs1 on Cytochrome P450 2C9 (Homo sapiens, UniProt P11712): IC50 was > 25 µM

----------
recorded-endpoint: IC50 (µM)
Unit µM implied. Number only.

Here CC(C)c1nc(CN(C)C(=O)N[C@@H](CCN2CCOCC2)C(=O)N[C@H](CC[C@H](Cc2ccccc2)NC(=O)OCc2cncs2)Cc2ccccc2)cs1 [COBICISTAT] was tested on UniProtKB P10635, and its IC50 came to 9.2

Hey, UniProtKB P10635 data for CC(C)c1nc(CN(C)C(=O)N[C@H](CCN2CCOCC2)C(=O)N[C@H](CC[C@H](Cc2ccccc2)NC(=O)OCc2cncs2)Cc2ccccc2)cs1 : IC50 came out at 3.1

----------
The following molecules have recorded IC50 on Protease (Human immunodeficiency virus 1, UniProt Q9YQ12).
Sequence (Q9YQ12 whole entry): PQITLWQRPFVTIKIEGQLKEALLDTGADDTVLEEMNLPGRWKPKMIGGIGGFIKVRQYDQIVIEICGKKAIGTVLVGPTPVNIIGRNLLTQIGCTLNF

For reference, reported IC50 for CC(C)c1nc(CN(C)C(=O)N[C@@H](CCCCN)C(=O)N[C@H](CC[C@H](Cc2ccccc2)NC(=O)OCc2cncs2)Cc2ccccc2)cs1 stands at > 30 µM

The molecule identified as CC(C)c1nc(CN(C)C(=O)N[C@@H](CO)C(=O)N[C@H](CC[C@H](Cc2ccccc2)NC(=O)OCc2cncs2)Cc2ccccc2)cs1 registered its IC50 at 0.05 µM

Sample CC(C)c1nc(CN(C)C(=O)N[C@@H](Cc2cnc[nH]2)C(=O)N[C@@H](CC[C@@H](Cc2ccccc2)NC(=O)OCc2cncs2)Cc2ccccc2)cs1 ; IC50 observed: > 30 µM
